Listing of recorded pIC50 by entry.
Test: Inhibition of p56lck SH2 domain by ELISA
Set-up: species or system Homo sapiens
pIC50: −log10 of the molar value.
REPORTED_ENDPOINT: pIC50

O=C(/C=C/c1ccc(O)c(O)c1)N[C@H](Cc1ccc(O)c(O)c1)C(=O)O = 4.70
COC(=O)[C@@H](Cc1ccc(O)c(O)c1)NC(=O)CCc1ccc(O)c(O)c1 = 4.49
COC(=O)[C@@H](Cc1ccc(O)c(O)c1)NC(=O)/C=C/c1ccc(O)c(O)c1 = 4.15
CCOC(=O)[C@@H](Cc1ccc(O)c(O)c1)OC(=O)/C=C/c1ccc(O)c(O)c1 [ETHYL ROSMARINATE] = 4.04
CC(C)(C)OC(=O)[C@@H](Cc1ccc(O)c(O)c1)OC(=O)/C=C/c1ccc(O)c(O)c1 = 3.90
O=C(CCc1ccc(O)c(O)c1)N[C@H](Cc1ccc(O)c(O)c1)C(=O)O = 4.89
